System: S. aureus A798
experimentNotes: Bacterial growth minimal inhibitory concentration (microdilution, cation-adjusted Mueller-Hinton Broth)
Assay type: cell-based, Staphylococcus aureus
conditionParameters: Staphylococcus aureus, A798; multiply-resistant strain (methicillin- and quinolone-resistant)
observable: MIC (mg/L)

compound	displayUnit	MIC
NCCOc1cccc(-c2ccnc(CNCC[C@H]3CN(c4ccc5c(n4)NC(=O)CO5)C(=O)O3)c2)n1.O=CO	mg/L	0.5

A = C[C@H]1[C@@H](Oc2cccc(-c3cccc(CNCC[C@H]4CN(c5ccc6c(n5)NC(=O)CO6)C(=O)O4)c3)n2)CCN1C (relative stereo)
B = CN1CC[C@H](Oc2cccc(-c3cccc(CNCC[C@H]4CN(c5ccc6c(n5)NC(=O)CO6)C(=O)O4)n3)n2)C1
Prompt line: From the items above, decide which of A and B has the lower MIC reading. Lab note: record the label of whichever item you select.
Response line: A
(A: 0.25 mg/L, B: 2 mg/L)
